- System: CD2F1 mice, L1210 leukemia ip, survival T/C
- Experimental Details: NCI In Vivo Anticancer Drug Screen. Data for tumor model L1210 Leukemia (intraperitoneal) in CD2F1 (CDF1) mice
- Condition Info: endpoint: mean survival time; dose: 5.0 mg/kg/injection; schedule: Q01DX009 (ip); vehicle: saline; higher = longer survival
Toxic doses and inconclusive results are not listed.
Listed here: items and their measured T/C.

> print(dat)
                                   compound                             system.tested             value
1         Cc1[nH]c(=O)[nH]c(=O)c1N(CCF)CCCl  CD2F1 mice, L1210 leukemia ip, survival T/C  104 % of control
2            COc1ccc(CCN2C(=O)C=CC2=O)cc1OC  CD2F1 mice, L1210 leukemia ip, survival T/C   94 % of control
3  CCOP(=O)(N1CC1(C)C)N1CC1(C)C (centres undefined)  CD2F1 mice, L1210 leukemia ip, survival T/C  104 % of control

What value of measured T/C is listed for C[N+](C)(C)Cc1ccccc1/C(=N\O)c1ccccc1 ?
109 % of control

---

- Test system: CD2F1 mice, L1210 leukemia ip, survival T/C
- Experimental Details: NCI In Vivo Anticancer Drug Screen. Data for tumor model L1210 Leukemia (intraperitoneal) in CD2F1 (CDF1) mice
- Condition Info: endpoint: mean survival time; dose: 200.0 mg/kg/injection; schedule: Q04DX002 (ip); vehicle: saline with Tween-80
Toxic doses and inconclusive results are not listed. How the source made its calls: active means survival T/C of 150% or more; inactive means T/C below 125% in these data.
Outcomes you can answer with include only these: t = active, f = inactive

Below, 5 compounds whose answers are already recorded.
> print(dat)
                                   compound  class.label
1                          NC(=O)c1ccccc1CO            f
2  O=C1NC(=O)C2C3CCC(O3)C12 (stereo unspecified)            f
3                    CN(C)C(=O)Nc1ccc(F)cc1            f
4                   NC(=S)N/N=C/c1ccc(I)cn1            f
5           O=C(C1CC1)N1CCC(O)(c2ccccc2)CC1            f

# lookup: test call for OCC1C2C=CC(c3ccccc32)C1CO (stereo unspecified)
f

Request: CC1=CCC(c2ccccc2)NC(=O)C1 (stereo unspecified)
f

Request: CC1=C(CCC(=O)O)C(=O)C(CCC(=O)O)C(C)(C)C1 (stereo unspecified)
f

Request: O=C1CC(=O)C(CCc2cccc3ccccc23)C1=O (stereo unspecified)
f

Request: Cc1cc(=O)n(C2CCCCC2)c(=NC2CCCCC2)o1
f

Request: CC(=O)SCC1C(=O)n2c(cc3ccccc32)C(=O)N1C (stereo unspecified)
f

Request: CCOc1ccccc1/C=C1\N=C(c2ccc(Cl)cc2)OC1=O
f

---

- System: CD2F1 mice, L1210 leukemia ip, survival T/C
- Experimental Details: NCI In Vivo Anticancer Drug Screen. Data for tumor model L1210 Leukemia (intraperitoneal) in CD2F1 (CDF1) mice
- Condition Info: endpoint: mean survival time; dose: 100.0 mg/kg/injection; schedule: Q04DX003 (ip); vehicle: saline sonified; higher = longer survival
Toxic doses and inconclusive results are not listed.
Value Kind: T/C

The cases that follow already have their T/C on record.
> print(dat)
                       structure.smiles             value
1              C=CCSc1nc(N)nc2nc[nH]c12  107 % of control
2             O=C(CCCCCC(=O)OCCBr)OCCBr  100 % of control
3                             S=C1SCCS1   98 % of control
4  COc1cc2ccnc(Cc3ccc4c(c3)OCO4)c2cc1OC   95 % of control

Give recorded T/C with CD2F1 mice, L1210 leukemia ip, survival T/C for the following compound: FCCc1ccccc1
98 % of control

Values were extracted from PubChem BioAssay AID256.
